Where do these numbers come from? They come from the supplement of paper PMC3334620.

Assign PBM E-score to each entry below.
# Tested on: Nrg2 (UniProt P38082)
# Sequence: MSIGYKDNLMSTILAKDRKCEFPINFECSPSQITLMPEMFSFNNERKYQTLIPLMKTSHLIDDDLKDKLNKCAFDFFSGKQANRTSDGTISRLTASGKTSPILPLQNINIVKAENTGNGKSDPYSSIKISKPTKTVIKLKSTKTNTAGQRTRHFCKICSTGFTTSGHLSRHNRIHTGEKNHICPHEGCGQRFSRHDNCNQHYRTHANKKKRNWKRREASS
# Assay method text: PBM E-score (8-mer binding enrichment) (E-score (-0.5 to 0.5)); higher = stronger / more preferred TF binding
# Condition details: protein concentration: 100 nM; construct: GST-full length
Over roughly 33,000 sequences, “E-score (-0.5 to 0.5)” has its median near -8e-05; the highest 2% begin near 0.23. The sample holds the highest values, similar sequences and a random draw of the others, so the mix is not that of the screen.
When you answer, write just the number.

Task: Dear colleague, I am looking for the recorded PBM E-score of the following sequence: `ACGGAAAC`
Output: -0.0771

Task: Dear colleague, I am looking for the recorded PBM E-score of the following sequence: `CTTGTGCC`
Output: -0.222

Task: Dear colleague, I am looking for the recorded PBM E-score of the following sequence: `GAATGAGA`
Output: 0.114

Task: Dear colleague, I am looking for the recorded PBM E-score of the following sequence: `CAGGTCTA`
Output: -0.0487

Task: Dear colleague, I am looking for the recorded PBM E-score of the following sequence: `AGAGGACG`
Output: -0.0944

Task: Dear colleague, I am looking for the recorded PBM E-score of the following sequence: `CAACCTAA`
Output: 0.059

Task: Dear colleague, I am looking for the recorded PBM E-score of the following sequence: `GAATGATA`
Output: 0.247

Task: Dear colleague, I am looking for the recorded PBM E-score of the following sequence: `AAATGATA`
Output: 0.225

Task: Dear colleague, I am looking for the recorded PBM E-score of the following sequence: `ACGGAAAT`
Output: 0.244

Task: Dear colleague, I am looking for the recorded PBM E-score of the following sequence: `ATATAGTA`
Output: 0.155

Task: Dear colleague, I am looking for the recorded PBM E-score of the following sequence: `ACGGAAAA`
Output: 0.0488

----------
# Tested on: Nrg2 (UniProt P38082)
# Sequence: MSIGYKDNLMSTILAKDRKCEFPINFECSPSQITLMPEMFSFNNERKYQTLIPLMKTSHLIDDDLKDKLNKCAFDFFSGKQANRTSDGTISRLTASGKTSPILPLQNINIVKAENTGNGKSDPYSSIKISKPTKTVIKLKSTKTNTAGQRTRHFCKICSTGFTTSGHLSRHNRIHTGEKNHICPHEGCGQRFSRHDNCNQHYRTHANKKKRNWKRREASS
# Assay method text: PBM E-score (8-mer binding enrichment) (E-score (-0.5 to 0.5)); higher = stronger / more preferred TF binding
# Condition details: protein concentration: 100 nM; construct: GST-full length
In all, about 33,000 sequences were measured (“E-score (-0.5 to 0.5)”: median about -8e-05, highest 2% from about 0.23 on). For the sample, the highest values were picked, then their nearest neighbours and some sequences at random.
Group membership follows PBM E-score per the scheme low band (below -0.04), middle band (-0.04 to below 0.009), high band (0.009 or more)

Task: Please report the category associated with `ACTCGTTG` , nothing else.
Output: low band

Task: Please report the category associated with `GGGATCAA` , nothing else.
Output: low band

Task: Please report the category associated with `CCACGGAA` , nothing else.
Output: high band

Task: Please report the category associated with `AACCTCTA` , nothing else.
Output: low band

Task: Please report the category associated with `TCTGACCA` , nothing else.
Output: high band

Task: Please report the category associated with `ATCCGATA` , nothing else.
Output: middle band

Task: Please report the category associated with `AAGCCACC` , nothing else.
Output: low band

Task: Please report the category associated with `ATTCGTTC` , nothing else.
Output: high band

Task: Please report the category associated with `CACGCCTA` , nothing else.
Output: low band

Task: Please report the category associated with `ATTCGTTG` , nothing else.
Output: high band

Task: Please report the category associated with `CCCCTTGC` , nothing else.
Output: middle band

Task: Please report the category associated with `CTTGCGTC` , nothing else.
Output: middle band

Task: Please report the category associated with `GCGGCCAA` , nothing else.
Output: low band

Task: Please report the category associated with `GCCCTTGA` , nothing else.
Output: middle band

Task: Please report the category associated with `GTCCATGA` , nothing else.
Output: low band

Task: Please report the category associated with `CCCCTAGA` , nothing else.
Output: high band

Task: Please report the category associated with `ACGTTGAC` , nothing else.
Output: middle band

Task: Please report the category associated with `AATATATT` , nothing else.
Output: high band

Task: Please report the category associated with `ACCCTTGC` , nothing else.
Output: high band

Task: Please report the category associated with `CGTGAATA` , nothing else.
Output: high band

Task: Please report the category associated with `ACCCTAGT` , nothing else.
Output: middle band

Task: Please report the category associated with `CTTCGTTC` , nothing else.
Output: middle band

----------
Assign PBM E-score to each entry below.
# Tested on: Nrg2 (UniProt P38082)
# Sequence: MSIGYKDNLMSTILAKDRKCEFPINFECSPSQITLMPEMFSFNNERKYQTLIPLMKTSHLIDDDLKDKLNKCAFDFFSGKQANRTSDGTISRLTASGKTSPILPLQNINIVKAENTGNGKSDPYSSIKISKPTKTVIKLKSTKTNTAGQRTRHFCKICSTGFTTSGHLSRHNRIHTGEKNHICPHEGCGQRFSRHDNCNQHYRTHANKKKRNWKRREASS
# Assay method text: PBM E-score (8-mer binding enrichment) (E-score (-0.5 to 0.5)); higher = stronger / more preferred TF binding
# Condition details: protein concentration: 100 nM; construct: GST-full length
Over roughly 33,000 sequences, “E-score (-0.5 to 0.5)” has its median near -8e-05; the highest 2% begin near 0.23. For the sample, the highest values were picked, then their nearest neighbours and some sequences at random.
When you answer, write just the number.

Task: Dear colleague, I am looking for the recorded PBM E-score of the following sequence: `CTGCACCA`
Output: -0.0673

Task: Dear colleague, I am looking for the recorded PBM E-score of the following sequence: `GCCCTCAC`
Output: -0.177

Task: Dear colleague, I am looking for the recorded PBM E-score of the following sequence: `GGGTAGGA`
Output: -0.0916

Task: Dear colleague, I am looking for the recorded PBM E-score of the following sequence: `ATAGGTTA`
Output: -0.00463

Task: Dear colleague, I am looking for the recorded PBM E-score of the following sequence: `AACGGATG`
Output: -0.00493

Task: Dear colleague, I am looking for the recorded PBM E-score of the following sequence: `ATTAGTCG`
Output: 0.143

Task: Dear colleague, I am looking for the recorded PBM E-score of the following sequence: `ACGTTTCC`
Output: -0.16

Task: Dear colleague, I am looking for the recorded PBM E-score of the following sequence: `TACGGATA`
Output: 0.0194

Task: Dear colleague, I am looking for the recorded PBM E-score of the following sequence: `ATTAGTTG`
Output: 0.256

Task: Dear colleague, I am looking for the recorded PBM E-score of the following sequence: `TATGAGCA`
Output: -0.127

Task: Dear colleague, I am looking for the recorded PBM E-score of the following sequence: `AATAGTTG`
Output: 0.248
